biological target: human mAChR M4 (Homo sapiens, UniProt P08173); construct: expressed in transfected cells; host or cells: CHO-K1 (ATCC), stably expressing hM4 and Gqi5; experiment: mAChR M4 cell-based functional assay: calcium flux (Fluo-4, FDSS), positive allosteric modulator activity on the EC20 acetylcholine response, hM4-Gqi5 CHO-K1 cells; conditions: human M4; PAM activity on EC20 acetylcholine response, calcium flux; read-out: Human M4 EC50
Sequence (P08173 whole entry): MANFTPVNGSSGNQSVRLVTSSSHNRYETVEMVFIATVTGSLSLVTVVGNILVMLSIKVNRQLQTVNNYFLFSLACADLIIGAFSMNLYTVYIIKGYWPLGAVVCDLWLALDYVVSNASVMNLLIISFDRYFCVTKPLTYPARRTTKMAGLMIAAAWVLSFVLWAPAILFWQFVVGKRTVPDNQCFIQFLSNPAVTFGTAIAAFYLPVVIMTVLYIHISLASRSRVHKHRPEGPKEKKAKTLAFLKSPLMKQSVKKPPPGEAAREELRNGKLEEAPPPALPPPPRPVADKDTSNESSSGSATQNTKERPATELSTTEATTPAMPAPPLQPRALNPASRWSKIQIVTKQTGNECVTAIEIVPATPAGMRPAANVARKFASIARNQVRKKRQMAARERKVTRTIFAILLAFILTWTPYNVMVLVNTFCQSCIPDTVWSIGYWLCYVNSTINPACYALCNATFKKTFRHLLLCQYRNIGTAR
measured metric: EC50 (nM)

>>> print(df.to_string())
                                   molecule  measured_metric  measured_value
0  Clc1ccc2nc(Cl)nc(N3CCc4ncc(N5CCCn6nccc65)cc4C3)c2c1 [Compound 89]             EC50             250

1 = Cc1ccc2ncnc(N3CCc4ncc(-c5cn(C)nc5C)cc4C3)c2c1 [Compound 14]
2 = CC1(C)CN(c2nc(N3CCc4ncc(N5CCCn6nccc65)cc4C3)c3cccnc3n2)CCO1 [Compound 249]
Which of these two has the smaller recorded EC50: 1 or 2 ? Return value: the label identifying the chosen record.
1
(1: 160 nM, 2: 810 nM)
